Tested on: MILI (PIWIL2) piRISC loaded with L1MC piRNA (26 nt);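 also: 1 nM active piRISC with 0.1 nM target library at 33 °C single turnover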
Assay: pre-steady-state target cleavage rate (min^-1); guide: L1MC piRNA 5'p-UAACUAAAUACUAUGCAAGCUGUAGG; MIWI and MILI are mouse PIWI proteins and EfPiwi is from a freshwater sponge; tags in brackets are library labels; higher = faster piRNA-guided slicing of the target
Settings: auxiliary factor: none (no GTSF1)
quantity_kind: pre-steady-state target cleavage rate
Please give only the number in your answer, with no unit.

Illustrative cases are given below, each with its answer.
- sequence_record: "UCCUGGAUGUCGAUGCAUAGUAUCUAGUUA"
  pre-steady-state target cleavage rate: 0.00396
- sequence_record: "UCCUGGAUGUCGUUGCUUAGUAUUUAGUUA"
  pre-steady-state target cleavage rate: 0.00861
- sequence_record: "UCCUGCUACACCUUGCAUAGUAAUUAGUUA"
  pre-steady-state target cleavage rate: 0.00684
- sequence_record: "UCCUGGAUGUCGUUGCAUAGUAUUUAGUUA [g2:g18:cont:t1A]"
  pre-steady-state target cleavage rate: 0.0106
- sequence_record: "UCCUCCUACAGCAUGCAUAGUAAUUAGUUA"
  pre-steady-state target cleavage rate: 0.00544
- sequence_record: "UCCUGGAUGUCCUUGCUUAGUAUUUUGUUA"
  pre-steady-state target cleavage rate: 0.00384

Please find the next sequence below.
Task item: What value of measured pre-steady-state target cleavage rate is listed for `UCCUCCUACUGCUUGCAUAGUAUUUAGUUA` ?
Reply: 0.00899
